# test.settings: in isopentanol, 298.25 K
reported.metric: solubility (mole fraction)
Just the number.

-- ask Data request, read-out solubility (mole fraction), for C[N+](C)(C)CC(=O)[O-]
-- reply 0.000269

###

# test.settings: in acetic acid, 322.58 K
reported.metric: solubility (mole fraction)
Just the number.

-- ask Data request, read-out solubility (mole fraction), for C[N+](C)(C)CC(=O)[O-]
-- reply 0.306

###

# test.settings: in DMSO, 322.88 K
reported.metric: solubility (mole fraction)
Just the number.

-- ask Data request, read-out solubility (mole fraction), for C[N+](C)(C)CC(=O)[O-]
-- reply 0.00291

###

# test.settings: in acetic acid, 308.31 K
reported.metric: solubility (mole fraction)
Just the number.

-- ask Data request, read-out solubility (mole fraction), for C[N+](C)(C)CC(=O)[O-]
-- reply 0.268
